Listing: pIC50 of selected compounds
Assay: S. pneumoniae PMK inhibitor potency, dose response, biochemical, mevalonate pathway, coupling enzyme counter-screen (AID 549)
Conditions: PK/LDH coupled NADH absorbance 340 nm, measured here: coupling enzymes counter-screen (hexokinase)
// returns pIC50 (minus log10 of molar concentration), number only

In: For the compound shown here, CCOC(=O)C1=C(C)NC(=O)NC1c1c(C)nn(-c2ccccc2)c1Cl (stereo not given) , give the reported pIC50.
Out: 5.45

----------
Overview of reported pIC50 across a group of molecules:
Assay: S. pneumoniae PMK inhibitor potency, dose response, biochemical, mevalonate pathway, coupling enzyme counter-screen (AID 549)
Settings: PK/LDH coupled NADH absorbance 340 nm, measured here: coupling enzymes counter-screen (hexokinase)
On this scale, pIC50 is minus log10 of a concentration expressed in M (mol/L).

Some entries whose results are on file:
> print(dat)
                                 mol.smiles  recorded.value
1       CCOC(=O)N1C(=O)c2cc(OC)ccc2S1(=O)=O            4.73
2  COc1cccc(OC)c1-c1nn2c(-c3cc(-c4ccccc4)n[nH]3)nnc2s1            4.37
3  CCOC(=O)c1cc2c(=O)n3cccc(C)c3nc2n(CCCOC)c1=NC(=O)c1cccnc1            4.87

Now for another entry.
In: pIC50 for O=c1c2ccccc2[se]n1-c1ccccc1 ?
Out: 4.14
